PROTOCOL TEXT: Number of mice died after 1 day upon i.v. administration at 10 mg/kg into tail vein out of 3 animals tested
Assay type: ADME, organism-based
Set-up: dose 10 mg/kg, route intravenous
EXPERIMENTAL PARAMETERS: mouse, in vivo, iv, 24 h
EXPERIMENTAL READOUT: Mortality
API note: the answer field is a bare number with no unit suffix.

Q: Field request: Mortality | item: `CCOC(=O)CCc1cnccc1N1CCC(COc2ccc3c(c2)CN(C(=N)N)CC3)CC1.Cl.Cl`
Result: 3

Q: Field request: Mortality | item: `Cc1cc(N2CCC(COc3ccc4c(c3)CN(C(=N)N)CC4)(C(=O)O)CC2)ccn1.Cl.Cl`
Result: 0

Q: Field request: Mortality | item: `Cl.Cl.N=C(N)N1CCc2ccc(OCC3CCN(c4ccncc4C(=O)O)CC3)cc2C1`
Result: 0

Q: Field request: Mortality | item: `CC(=N)N1CCC(COc2ccc3c(c2)CN(C(=N)N)CC3)CC1.Cl.Cl`
Result: 3

Q: Field request: Mortality | item: `Cl.Cl.Cl.N=C(N)N1CCc2ccc(OCC3CCN(Cc4ccncc4)CC3)cc2C1`
Result: 3

Q: Field request: Mortality | item: `COC(=O)c1cnccc1N1CCC(COc2ccc3c(c2)CN(C(=N)N)CC3)CC1.Cl.Cl`
Result: 3

Q: Field request: Mortality | item: `CCOC(=O)C1(COc2ccc3c(c2)CN(C(=N)N)CC3)CCN(c2ccncc2)CC1.Cl.Cl`
Result: 3

Q: Field request: Mortality | item: `Cl.Cl.N=C(N)N1CCc2ccc(OCC3CCN(c4ccncc4CCC(=O)O)CC3)cc2C1`
Result: 0

Q: Field request: Mortality | item: `Cl.Cl.N=C(N)N1CCc2ccc(OCC3(C(=O)O)CCN(c4ccncc4)CC3)cc2C1`
Result: 0

Q: Field request: Mortality | item: `Cl.Cl.N=C(N)N1CCc2ccc(OCC3(C(=O)O)CCN(c4ccncn4)CC3)cc2C1`
Result: 0

Q: Field request: Mortality | item: `Cl.Cl.N=C(N)N1CCc2ccc(OCC3CCN(c4ccnc5ccccc45)CC3)cc2C1`
Result: 3

Q: Field request: Mortality | item: `Cl.Cl.N=C(N)N1CCc2ccc(OCC3CCN(c4ccncc4)CC3)cc2C1`
Result: 3
